TGT: CFTR-S549N (Homo sapiens, UniProt P13569, S549N)
Construct: expressed in transfected cells
Sequence (P13569 whole entry S549N): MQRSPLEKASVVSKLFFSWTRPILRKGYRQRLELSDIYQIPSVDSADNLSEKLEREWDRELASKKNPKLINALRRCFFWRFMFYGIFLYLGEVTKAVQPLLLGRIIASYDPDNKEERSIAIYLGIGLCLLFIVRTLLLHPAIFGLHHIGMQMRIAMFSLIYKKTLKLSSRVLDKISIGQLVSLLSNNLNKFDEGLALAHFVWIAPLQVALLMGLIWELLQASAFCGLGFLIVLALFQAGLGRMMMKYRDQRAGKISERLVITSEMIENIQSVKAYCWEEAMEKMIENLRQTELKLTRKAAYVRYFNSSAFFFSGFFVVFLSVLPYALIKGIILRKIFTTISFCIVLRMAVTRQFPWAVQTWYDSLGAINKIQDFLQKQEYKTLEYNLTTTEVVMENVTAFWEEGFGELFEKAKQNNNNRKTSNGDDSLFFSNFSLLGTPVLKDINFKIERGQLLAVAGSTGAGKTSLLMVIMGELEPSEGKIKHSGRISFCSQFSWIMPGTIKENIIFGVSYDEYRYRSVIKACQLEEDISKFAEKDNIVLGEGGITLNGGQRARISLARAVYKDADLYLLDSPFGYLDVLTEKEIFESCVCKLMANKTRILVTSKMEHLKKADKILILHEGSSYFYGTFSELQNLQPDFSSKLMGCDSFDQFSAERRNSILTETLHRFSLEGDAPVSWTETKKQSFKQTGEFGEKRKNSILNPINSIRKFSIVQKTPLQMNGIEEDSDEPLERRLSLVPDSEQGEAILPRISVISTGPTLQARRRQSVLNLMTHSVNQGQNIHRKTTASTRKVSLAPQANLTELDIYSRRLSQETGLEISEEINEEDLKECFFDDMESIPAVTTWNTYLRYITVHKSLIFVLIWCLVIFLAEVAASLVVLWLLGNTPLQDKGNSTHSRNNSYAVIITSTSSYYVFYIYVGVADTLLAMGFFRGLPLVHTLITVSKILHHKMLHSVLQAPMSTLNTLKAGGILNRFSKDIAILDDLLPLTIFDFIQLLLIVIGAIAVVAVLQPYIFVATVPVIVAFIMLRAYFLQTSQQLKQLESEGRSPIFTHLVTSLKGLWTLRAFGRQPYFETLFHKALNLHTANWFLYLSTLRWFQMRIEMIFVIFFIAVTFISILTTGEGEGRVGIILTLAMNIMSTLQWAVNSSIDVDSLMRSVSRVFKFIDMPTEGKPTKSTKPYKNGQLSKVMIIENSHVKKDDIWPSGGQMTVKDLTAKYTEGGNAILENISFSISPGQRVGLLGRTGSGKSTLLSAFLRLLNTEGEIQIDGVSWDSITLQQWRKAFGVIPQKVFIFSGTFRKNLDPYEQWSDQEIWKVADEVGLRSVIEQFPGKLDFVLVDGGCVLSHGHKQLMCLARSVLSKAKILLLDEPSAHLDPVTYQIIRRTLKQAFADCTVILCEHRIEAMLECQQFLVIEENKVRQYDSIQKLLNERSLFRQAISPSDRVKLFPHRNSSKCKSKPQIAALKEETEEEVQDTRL
EXPERIMENTAL_DETAILS: YFP-halide influx assay for the CFTR-S549N
Type: cell-based
Classify: 1 when EC50 is strictly less than 1000 nM; -1 when EC50 is not.

# COMPOUND, CATEGORY_LABEL
measured = [
    ("CC(C)(O)C(=O)Nc1sc(S(=O)(=O)c2ccc(F)cc2Cl)cc1C(N)=O", -1),
    ("CC(C)(O)C(=O)Nc1sc(S(=O)(=O)c2ccc(OC(F)(F)F)cn2)cc1C(N)=O", -1),
    ("CC(O)C(=O)Nc1sc(S(=O)(=O)c2cc(F)ccc2Cl)cc1C(N)=O (centres unmarked)", 1),
    ("CC(C)(O)C(=O)Nc1sc(S(=O)(=O)c2ccc(C(F)(F)F)c(F)c2)cc1C(N)=O", 1),
    ("CC(O)C(=O)Nc1sc(S(=O)(=O)c2cc(F)ccc2CC(F)(F)F)cc1C(N)=O (centres unmarked)", 1),
]

Hey, just so you know, these numbers are from patent US9382254B2.
